Test system: Rice water weevil [Lissorhoptrus oryzophilus (Kuschel)]
Experiment: Rice water weevil topical (RWW), 48 hours
Type: in vivo
Conditions: μg of test compound per weevil, female adults
Protocol: The compounds in Tables 1 and 2 above were tested for insecticidal activity using the following testing procedures. LC50 values, based on the results of these tests and calculated according to dosage-mortality curves, are expressed in Table 3. Rice water weevil [Lissorhoptrus oryzophilus (Kuschel)]: Test compounds were diluted in acetone. Droplets (1 ul) of test solutions were applied to the ventral abdomens of ten female adult weevils. […] Mortality was recorded after 48 hours. […]
We label by threshold. Values of LC50 RWW strictly beneath 0.09 µg are Met. Values of 0.09 µg and up are Not met.

# compound, assigned_class
rows = [
    ("CC(C)C(=Nc1ccc(F)c(Cl)c1)OCc1cccc(Oc2ccc(F)cc2)c1", "Not met"),
    ("CC(C)C(=Nc1ccc(C(F)(F)F)cc1)OCc1ccc(F)c(Oc2ccc(F)cc2)c1", "Not met"),
    ("CC(C)C(=Nc1ccc(F)c(Cl)c1)OCc1cccc(Oc2ccc(Cl)cc2)c1", "Not met"),
    ("CC(C)C(=Nc1ccc(F)c(F)c1)OCc1ccc(F)c(Oc2ccc(F)cc2)c1", "Met"),
    ("CCOc1ccc(N=C(OCc2ccc(F)c(Oc3ccc(Cl)cc3)c2)C(C)C)cc1Cl", "Not met"),
]

QUERY: Lab note: LC50 RWW threshold 0.09 µg. Does this compound come in strictly under it? CC(C)C(=Nc1ccc(C(F)(F)F)cc1)OCc1cccc(Oc2ccccc2)c1
RESULT: Not met

QUERY: Lab note: LC50 RWW threshold 0.09 µg. Does this compound come in strictly under it? CC(C)C(=Nc1ccc(F)c(F)c1)OCc1ccc(F)c(Oc2ccc(Cl)cc2)c1
RESULT: Not met

QUERY: Lab note: LC50 RWW threshold 0.09 µg. Does this compound come in strictly under it? CC(C)C(=Nc1ccc(F)c(Cl)c1)OCc1cc(Oc2ccc(F)cc2)ccc1F
RESULT: Not met

QUERY: Lab note: LC50 RWW threshold 0.09 µg. Does this compound come in strictly under it? CC(C)C(=Nc1ccc(C(F)(F)F)c(Br)c1)OCc1ccc(F)c(Oc2ccc(Cl)cc2)c1 [Compound 433]
RESULT: Met

QUERY: Lab note: LC50 RWW threshold 0.09 µg. Does this compound come in strictly under it? CC(C)C(=Nc1ccc(F)c(C(F)(F)F)c1)OCc1ccc(F)c(Oc2ccc(F)cc2)c1
RESULT: Met

QUERY: Lab note: LC50 RWW threshold 0.09 µg. Does this compound come in strictly under it? Fc1ccc(N=C(OCc2cccc(Oc3ccccc3)c2)C2CC2)cc1Cl
RESULT: Not met

QUERY: Lab note: LC50 RWW threshold 0.09 µg. Does this compound come in strictly under it? CC(C)C(=Nc1cccc(Br)c1)OCc1ccc(F)c(Oc2ccccc2)c1
RESULT: Not met

QUERY: Lab note: LC50 RWW threshold 0.09 µg. Does this compound come in strictly under it? FC(F)(F)c1cccc(N=C(OCc2cccc(Oc3ccccc3)c2)C(Cl)Cl)c1
RESULT: Not met

QUERY: Lab note: LC50 RWW threshold 0.09 µg. Does this compound come in strictly under it? CC(C)C(=Nc1ccc(F)c(Br)c1)OCc1ccc(F)c(Oc2ccc(Cl)cc2)c1
RESULT: Not met

QUERY: Lab note: LC50 RWW threshold 0.09 µg. Does this compound come in strictly under it? CC(C)C(=Nc1ccc(F)c(Cl)c1F)OCc1ccc(F)c(Oc2ccc(F)cc2)c1
RESULT: Met

QUERY: Lab note: LC50 RWW threshold 0.09 µg. Does this compound come in strictly under it? CCOc1ccc(N=C(OCc2ccc(F)c(Oc3ccccc3)c2)C(C)C)cc1Cl
RESULT: Not met
